system: MDA-MB-231; assay: Antiproliferative activity against human MDA-MB-231 cells assessed as inhibition of cell growth incubated for 48 hrs by MTT assay; type: functional, cell-based; conditions: MDA-MB-231, 48 h
Parameter measured: IC50 (nM)

Molecule	Obs value
CO[C@@]12[C@H](COC(N)=O)C3=C(C(=O)C(C)=C(N)C3=O)N1C[C@H]1[C@@H]2N1C(=O)CCCCCCCCCCC[P+](c1ccccc1)(c1ccccc1)c1ccccc1	2630
CO[C@@]12[C@H](COC(N)=O)C3=C(C(=O)C(C)=C(N)C3=O)N1C[C@H]1[C@@H]2N1C(=O)CCCCCCCCC[P+](c1ccccc1)(c1ccccc1)c1ccccc1.[Br-]	3110
CO[C@@]12[C@H](COC(N)=O)C3=C(C(=O)C(C)=C(N)C3=O)N1C[C@H]1[C@@H]2N1CCCCCCCCCC[P+](c1ccccc1)(c1ccccc1)c1ccccc1 (some centres undefined)	1950
CO[C@@]12[C@H](COC(N)=O)C3=C(C(=O)C(C)=C(N)C3=O)N1C[C@H]1[C@@H]2N1C(=O)CCCCCCC[P+](c1ccccc1)(c1ccccc1)c1ccccc1	7640

* * *

The following molecules are shown together with reported IC50 at 48 h values.
assay: Cytotoxicity against human L02 cells assessed as inhibition of cell growth incubated for 48 hrs by MTT assay; assay type: toxicity, cell-based

Molecule	IC50 at 48 h
CO[C@@]12[C@H](COC(N)=O)C3=C(C(=O)C(C)=C(N)C3=O)N1C[C@H]1[C@@H]2N1CCCCCCCCCC[P+](c1ccccc1)(c1ccccc1)c1ccccc1 (some centres undefined)	> 5 µM
CO[C@@]12[C@H](COC(N)=O)C3=C(C(=O)C(C)=C(N)C3=O)N1C[C@H]1[C@@H]2N1C(=O)CCCCCCC[P+](c1ccccc1)(c1ccccc1)c1ccccc1	> 20 µM
CO[C@@]12[C@H](COC(N)=O)C3=C(C(=O)C(C)=C(N)C3=O)N1C[C@H]1[C@@H]2N1C(=O)CCCCCCCCCCC[P+](c1ccccc1)(c1ccccc1)c1ccccc1	> 2.5 µM
CO[C@@]12[C@H](COC(N)=O)C3=C(C(=O)C(C)=C(N)C3=O)N1C[C@H]1[C@@H]2N1C(=O)CCCCCCCCC[P+](c1ccccc1)(c1ccccc1)c1ccccc1.[Br-]	> 20 µM

* * *

Consider the following compounds and their measured IC50 at 48 h readings.
experiment: Cytotoxicity against HUVEC assessed as inhibition of cell growth incubated for 48 hrs by MTT assay; format: toxicity, cell-based; conditions: human
Parameter measured: IC50 at 48 h

Compound	Parameter measured	Obs value
CO[C@@]12[C@H](COC(N)=O)C3=C(C(=O)C(C)=C(N)C3=O)N1C[C@H]1[C@@H]2N1C(=O)CCCCCCCCC[P+](c1ccccc1)(c1ccccc1)c1ccccc1.[Br-]	IC50 at 48 h	> 20 µM
CO[C@@]12[C@H](COC(N)=O)C3=C(C(=O)C(C)=C(N)C3=O)N1C[C@H]1[C@@H]2N1C(=O)CCCCCCC[P+](c1ccccc1)(c1ccccc1)c1ccccc1	IC50 at 48 h	> 20 µM
CO[C@@]12[C@H](COC(N)=O)C3=C(C(=O)C(C)=C(N)C3=O)N1C[C@H]1[C@@H]2N1C(=O)CCCCCCCCCCC[P+](c1ccccc1)(c1ccccc1)c1ccccc1	IC50 at 48 h	> 5 µM
CO[C@@]12[C@H](COC(N)=O)C3=C(C(=O)C(C)=C(N)C3=O)N1C[C@H]1[C@@H]2N1CCCCCCCCCC[P+](c1ccccc1)(c1ccccc1)c1ccccc1 (some centres undefined)	IC50 at 48 h	10 µM
